These entries and their values trace back to ChEMBL document CHEMBL4732271.

- ASSAYED TARGET: SMN2 pre-mRNA
- EXPERIMENTAL PROTOCOL: Modulation of SMN2 mRNA D7 splicing in human spinal muscular atrophy patient fibroblasts incubated for 24 hrs by qPCR analysis
- Type: tissue-based
Reported IC50 is given for each of the following molecules.
Write down the numeric answer in nM and omit the unit.

Ask: Request the reported IC50 associated with CN(c1nnc(-c2ccc(-c3cnn(C)c3)cc2O)s1)[C@@H]1C[C@H]2CC[C@H](N2)[C@@H]1F
Result: 0.01

Ask: Report IC50 for CN(c1nnc(-c2ccc(-c3cn[nH]c3)cc2O)s1)[C@@H]1C[C@H]2CC[C@H](N2)[C@@H]1F please.
Result: 0.01

Ask: Sample CN(c1nnc(-c2ccc(-c3cnn(C)c3)cc2O)s1)[C@H]1C[C@@H]2CCC[C@@H](N2)[C@H]1F — what was its IC50?
Result: 0.01

Ask: What IC50 value was documented for this molecule, CN(c1nnc(-c2ccc(-c3cnn(CF)c3)cc2O)s1)[C@@H]1C[C@H]2CC[C@H](N2)[C@@H]1F ?
Result: 16

Ask: # IC50 lookup, item CN(c1nnc(-c2cc(F)c(-c3cnn(C)c3)cc2O)s1)[C@@H]1C[C@H]2CC[C@H](N2)[C@@H]1F
Result: 0.01

Ask: Name the recorded IC50 for COc1cc(-c2ccc(-c3nnc(N(C4CC4)[C@@H]4C[C@H]5CC[C@H](N5)C4F)s3)c(O)c2)cc(F)n1 (stereo partly specified) .
Result: 0.01
